// reported inhibition for each item listed
- experimental_target: Voltage-dependent N-type calcium channel subunit alpha-1B (Homo sapiens) (UniProt Q00975)
- Sequence (Q00975 whole entry, looked up): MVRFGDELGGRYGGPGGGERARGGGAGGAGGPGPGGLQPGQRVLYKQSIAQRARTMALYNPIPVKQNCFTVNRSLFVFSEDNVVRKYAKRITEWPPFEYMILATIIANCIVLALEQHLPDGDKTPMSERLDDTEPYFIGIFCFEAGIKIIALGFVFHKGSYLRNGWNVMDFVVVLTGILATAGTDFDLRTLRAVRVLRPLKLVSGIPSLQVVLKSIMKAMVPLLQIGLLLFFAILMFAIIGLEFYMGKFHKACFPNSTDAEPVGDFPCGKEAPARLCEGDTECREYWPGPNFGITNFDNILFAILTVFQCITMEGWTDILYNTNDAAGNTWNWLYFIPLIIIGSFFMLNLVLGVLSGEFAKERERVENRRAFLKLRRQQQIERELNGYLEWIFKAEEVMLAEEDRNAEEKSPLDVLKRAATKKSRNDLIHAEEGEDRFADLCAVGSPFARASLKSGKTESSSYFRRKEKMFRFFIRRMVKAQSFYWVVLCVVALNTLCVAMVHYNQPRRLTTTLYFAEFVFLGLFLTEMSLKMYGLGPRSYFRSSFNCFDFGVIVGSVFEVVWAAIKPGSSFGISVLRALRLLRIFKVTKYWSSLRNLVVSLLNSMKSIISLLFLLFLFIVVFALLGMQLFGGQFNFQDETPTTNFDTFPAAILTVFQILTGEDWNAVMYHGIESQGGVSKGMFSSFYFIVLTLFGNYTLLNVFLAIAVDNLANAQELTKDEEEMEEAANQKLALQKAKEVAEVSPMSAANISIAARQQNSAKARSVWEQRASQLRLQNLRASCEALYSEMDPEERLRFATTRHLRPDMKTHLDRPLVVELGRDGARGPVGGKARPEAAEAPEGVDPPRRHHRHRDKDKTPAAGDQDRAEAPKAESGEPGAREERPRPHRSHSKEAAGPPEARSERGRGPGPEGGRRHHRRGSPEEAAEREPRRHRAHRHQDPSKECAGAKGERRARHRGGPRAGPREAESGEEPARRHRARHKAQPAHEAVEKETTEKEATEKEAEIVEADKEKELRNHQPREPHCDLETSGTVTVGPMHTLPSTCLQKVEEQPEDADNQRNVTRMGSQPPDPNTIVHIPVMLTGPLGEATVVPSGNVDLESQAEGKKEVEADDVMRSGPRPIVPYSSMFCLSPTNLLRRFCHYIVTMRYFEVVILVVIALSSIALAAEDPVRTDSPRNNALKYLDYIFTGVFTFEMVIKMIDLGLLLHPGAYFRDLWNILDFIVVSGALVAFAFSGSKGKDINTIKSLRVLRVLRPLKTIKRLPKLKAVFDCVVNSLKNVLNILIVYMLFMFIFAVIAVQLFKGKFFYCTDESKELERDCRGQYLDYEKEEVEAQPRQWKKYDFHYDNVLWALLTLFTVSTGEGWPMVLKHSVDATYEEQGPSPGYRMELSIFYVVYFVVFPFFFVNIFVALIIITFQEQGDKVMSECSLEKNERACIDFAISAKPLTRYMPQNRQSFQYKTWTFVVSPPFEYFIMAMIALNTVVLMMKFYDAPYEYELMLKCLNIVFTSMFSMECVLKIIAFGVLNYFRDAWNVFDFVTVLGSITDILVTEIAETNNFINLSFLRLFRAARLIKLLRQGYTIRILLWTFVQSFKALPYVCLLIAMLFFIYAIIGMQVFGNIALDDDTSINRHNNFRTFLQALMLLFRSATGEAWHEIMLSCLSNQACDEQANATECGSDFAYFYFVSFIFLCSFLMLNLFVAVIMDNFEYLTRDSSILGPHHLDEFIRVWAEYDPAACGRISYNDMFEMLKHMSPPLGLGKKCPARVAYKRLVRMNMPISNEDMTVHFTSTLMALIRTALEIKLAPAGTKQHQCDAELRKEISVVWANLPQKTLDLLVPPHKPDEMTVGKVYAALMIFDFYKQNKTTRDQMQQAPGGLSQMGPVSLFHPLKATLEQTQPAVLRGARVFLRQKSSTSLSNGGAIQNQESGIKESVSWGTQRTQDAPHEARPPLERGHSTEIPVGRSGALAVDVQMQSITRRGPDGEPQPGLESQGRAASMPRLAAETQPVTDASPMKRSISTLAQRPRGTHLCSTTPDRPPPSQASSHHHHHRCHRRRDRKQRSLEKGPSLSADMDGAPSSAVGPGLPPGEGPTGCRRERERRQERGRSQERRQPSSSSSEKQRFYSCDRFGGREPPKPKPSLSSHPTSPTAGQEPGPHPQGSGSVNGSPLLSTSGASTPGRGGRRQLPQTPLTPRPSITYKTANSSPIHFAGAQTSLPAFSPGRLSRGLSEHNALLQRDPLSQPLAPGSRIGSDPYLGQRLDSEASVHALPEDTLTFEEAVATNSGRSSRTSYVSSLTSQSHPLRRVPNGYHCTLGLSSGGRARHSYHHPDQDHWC
- protocol: disruptors of CaV2.2 binding to Mint1 – biochemical, HTRF (AID 2073)
- details: HTRF protein-protein interaction, Mint1-CaV2.2; at 20 µM; stronger effect = higher value
The whole screen tested about 290,000 compounds, of which about 570 (0.2%) were called active. About 1% were inconclusive and are not listed. What follows is part of a selection rich in actives, with near analogues and random picks from the rest.

CC(Oc1ccc(F)cc1Br)c1nc2ccccc2c(=O)[nH]1 (configuration not stated) ... 10.2% (inactive)
COc1ccc(N(CC(=O)NCc2ccco2)S(C)(=O)=O)cc1 ... 2.6% (inactive)
CCOc1ccc(C(=O)NC(=S)NCCCN2CCOCC2)cc1 ... -2.3% (inactive)
O=C(NCC1CCCO1)/C(=C/c1ccccc1)NC(=O)c1ccccc1 (configuration not stated) ... -11.4% (inactive)

Switching to the query record.
Can you share its inhibition? I mean this molecule: CSc1nc(N2CCN(c3ccccc3)CC2)cc(N2CCN(c3ccccc3)CC2)n1
18.7% (inactive)

====

- experimental_target: Voltage-dependent N-type calcium channel subunit alpha-1B (Homo sapiens)
- protocol: disruptors of CaV2.2 binding to Mint1 – biochemical, HTRF (AID 2073)
- details: HTRF protein-protein interaction, Mint1-CaV2.2; measured here: average of repeat tests; at 20 µM; stronger effect = higher value
Hit rate of the full screen: of about 290,000 compounds, about 570 (0.2%) were called active. Roughly 1% stayed inconclusive and do not appear here. What follows is part of a selection rich in actives, with near analogues and random picks from the rest.
Below: a set of entries, each annotated with reported inhibition.
Your answer is read as %, so omit the unit and give the number.

Below, each entry is followed by its recorded inhibition result.
COc1ccc(/C=N/NC(=O)c2ccc(CN3C(=O)c4cccc5cccc3c45)cc2)cc1O ... 39.7
O=c1cc(O)c2sc(Nc3ccc(Cl)c(F)c3)nc2[nH]1 ... 31.6
Cc1cc(C)c2nc(-c3ccccn3)cc(C(=O)Nc3ccc(S(=O)(=O)Nc4onc(C)c4C)cc3)c2c1 ... 52.5
Cc1ccc2[nH]c(=O)c(C(c3nnnn3CC3CCCO3)N3CCCc4ccccc43)cc2c1 (centres undefined) ... 12.5
COc1cc(C2CC(=O)N3CN(Cc4ccccc4)CSC3=C2C#N)ccc1OCc1ccccc1 (centres undefined) ... 44.4

Request the reported inhibition associated with CCc1ccc2[nH]c(=O)c(C(c3nnnn3CC3CCCO3)N3CCCc4ccccc43)cc2c1 (centres undefined)
15.4

For COc1cccc(NC(=O)c2ccc(-c3ccccc3[N+](=O)[O-])o2)c1 , what is its reported inhibition?
1.4

inhibition for O=C(CCCSc1ccccc1)Nc1nc(-c2ccco2)c(-c2ccco2)s1 ?
-7.2

Give the measured inhibition of O=C(/C=C\c1ccco1)c1ccc(NC(=O)c2ccco2)cc1 .
4

Field request: inhibition | item: O=C(NC1CCC(O)CC1)c1cc(-c2ccco2)nc2ccccc12 (centres undefined)
50.3

// lookup inhibition for Oc1ccc(N=C/C=C/c2cccc(Br)c2)cc1-c1nc2ccccc2s1
5

State the recorded inhibition for this entry: Cc1ccc(N=C2NC(=O)/C(=C\c3ccco3)S2)cc1
6.9

Given O=C1NC(=O)/C(=C/c2ccc(N3CCOCC3)o2)N1 , state its recorded inhibition.
3.9

So what does the record say about inhibition for Cc1ncc(CO)c(/C=N/NC(=S)Nc2ccc(Cl)c(Cl)c2)c1O ?
30.4

Entry under review: COc1cc(C2Nc3cccc4cccc(c34)N2)ccc1OC(C)=O . Reported inhibition?
-13.1
